Measured inhibition values are reported for all entries that follow.
- assayed_system: UniProtKB P05067
- Sequence (P05067 whole entry): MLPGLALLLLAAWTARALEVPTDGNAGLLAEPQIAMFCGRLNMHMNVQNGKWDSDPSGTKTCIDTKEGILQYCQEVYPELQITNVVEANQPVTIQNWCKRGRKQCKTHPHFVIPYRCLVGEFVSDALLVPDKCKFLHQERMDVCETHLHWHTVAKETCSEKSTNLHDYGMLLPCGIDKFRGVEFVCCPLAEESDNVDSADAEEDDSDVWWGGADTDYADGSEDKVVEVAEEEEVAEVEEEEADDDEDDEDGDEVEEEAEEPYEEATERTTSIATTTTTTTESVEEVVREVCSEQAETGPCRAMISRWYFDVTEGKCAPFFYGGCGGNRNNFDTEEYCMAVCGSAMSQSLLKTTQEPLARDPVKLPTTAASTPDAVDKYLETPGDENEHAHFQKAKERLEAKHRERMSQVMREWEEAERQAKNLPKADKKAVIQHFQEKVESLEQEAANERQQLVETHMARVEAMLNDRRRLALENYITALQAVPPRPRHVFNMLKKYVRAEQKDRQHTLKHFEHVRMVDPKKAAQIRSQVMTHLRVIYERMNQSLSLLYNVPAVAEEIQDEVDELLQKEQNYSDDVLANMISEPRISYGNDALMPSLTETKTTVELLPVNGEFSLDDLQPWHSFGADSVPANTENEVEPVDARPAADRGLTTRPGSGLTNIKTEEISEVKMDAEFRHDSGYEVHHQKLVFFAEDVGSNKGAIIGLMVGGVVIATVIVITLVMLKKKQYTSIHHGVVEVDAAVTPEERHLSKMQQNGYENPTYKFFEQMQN
- protocol_notes: Inhibition of Cu2+-induced HFIP-pretreated amyloid beta (1 to 42) (unknown origin) aggregation at 25 uM measured after 24 hrs by thioflavin-T fluorescence assay relative to control
Show the value, then the unit it is measured in.

Note to self: inhibition recorded for COC(=O)C(C)c1ccc(-c2ccc(NCc3cccc(OC)c3O)cc2)c(F)c1 (configuration not stated) was 39.9%

---

- assayed_system: Amine oxidase [flavin-containing] A (Homo sapiens, UniProt P21397)
- Sequence (P21397 whole entry): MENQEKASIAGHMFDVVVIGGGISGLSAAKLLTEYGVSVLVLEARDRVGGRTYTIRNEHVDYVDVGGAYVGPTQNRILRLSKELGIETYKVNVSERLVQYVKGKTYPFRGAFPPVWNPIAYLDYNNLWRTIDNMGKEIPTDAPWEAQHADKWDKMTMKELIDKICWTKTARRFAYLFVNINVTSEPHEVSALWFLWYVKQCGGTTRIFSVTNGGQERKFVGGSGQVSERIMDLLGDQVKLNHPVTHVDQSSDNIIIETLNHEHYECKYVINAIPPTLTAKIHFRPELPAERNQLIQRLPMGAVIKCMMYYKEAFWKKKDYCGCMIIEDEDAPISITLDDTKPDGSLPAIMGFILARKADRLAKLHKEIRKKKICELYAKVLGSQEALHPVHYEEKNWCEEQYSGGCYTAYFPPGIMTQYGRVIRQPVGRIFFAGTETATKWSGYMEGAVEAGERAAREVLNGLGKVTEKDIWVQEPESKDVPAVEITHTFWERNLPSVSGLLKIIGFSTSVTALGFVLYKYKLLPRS
- protocol_notes: Inhibition of recombinant human MAOA expressed in baculovirus infected in BTI cells at 10 uM using kynuramine as substrate after 30 mins by fluorescence based assay relative to control
- condition_details: 0.5 h
Mark class 0 for inhibition at 10 µM values under 20%, and class 1 for everything at or above.

Examples with answers:
compound | label
COC(=O)C(C)c1ccc(-c2ccc(NCc3ccccc3O)cc2)c(F)c1 (stereo not drawn) | class 0
COC(=O)C(C)c1ccc(-c2ccc(NCc3cc(CN4CCCCC4)ccc3O)cc2)c(F)c1 (stereo not drawn) | class 0
COC(=O)C(C)c1ccc(-c2ccc(NCc3cc(NC(C)=O)ccc3O)cc2)c(F)c1 (stereo not drawn) | class 0
COC(=O)C(C)c1ccc(-c2ccc(NCc3cccc(CN4CCCCC4)c3O)cc2)c(F)c1 (stereo not drawn) | class 0
COC(=O)C(C)c1ccc(-c2ccc(NCc3cc(Cl)ccc3O)cc2)c(F)c1 (stereo not drawn) | class 1

Problem: Hi team, for COC(=O)C(C)c1ccc(-c2ccc(NCc3cc(OC)ccc3O)cc2)c(F)c1 (stereo not drawn) , is the recorded inhibition at 10 µM at or above 20%?
Solution: class 1

---

Measured inhibition values are reported for all entries that follow.
- assayed_system: Amyloid-beta precursor protein (Homo sapiens)
- protocol_notes: Inhibition of Cu2+-induced HFIP-pretreated amyloid beta (1 to 42) (unknown origin) aggregation at 25 uM measured after 24 hrs by thioflavin-T fluorescence assay relative to control
Please reply with the bare figure in % and do not write the unit itself.

A selection of reference data follows.
molecule | inhibition, %
COC(=O)C(C)c1ccc(-c2ccc(NCc3cccc(CN(C)C)c3O)cc2)c(F)c1 (stereo unspecified) | 41.9
COC(=O)C(C)c1ccc(-c2ccc(NCc3cc(Cl)ccc3O)cc2)c(F)c1 (stereo unspecified) | 41.9
CC(C(=O)O)c1ccc(-c2ccccc2)c(F)c1 (stereo unspecified) | 7.29
COC(=O)C(C)c1ccc(-c2ccc(NCc3cc(CN4CCCCC4)ccc3O)cc2)c(F)c1 (stereo unspecified) | 29.4
COC(=O)C(C)c1ccc(-c2ccc(NCc3cccc(CN4CCCCC4)c3O)cc2)c(F)c1 (stereo unspecified) | 42.4

# context switch: different molecule, same inhibition
Note to self: inhibition recorded for COC(=O)C(C)c1ccc(-c2ccccc2NCc2cc(N(C)C)ccc2O)c(F)c1 (stereo unspecified) was 87.3
